valueKind: CC50 (nM)
Report only the number, with the unit nM understood.

I'm curious: which CC50 was measured for C=C1C(=O)O[C@H]2[C@H]1CC/C(COC(=O)c1cc3ccccc3[nH]1)=C\CC[C@@]1(C)O[C@@H]21 tested on LOX IMVI?
732

###

Please go through the items and note down their EC50.
System: M9 ENL cells
Test: cells
Conditions: 24 h
Respond with the bare value in µM.

Look up EC50: C=C1C(=O)O[C@H]2[C@H]1CC/C(C(=O)n1ccnc1C)=C\CC[C@@]1(C)O[C@@H]21
5.9

Need EC50 of C=C1C(=O)O[C@H]2[C@H]1CC/C(COC(=O)c1ccc(C#N)cc1)=C\CC[C@@]1(C)O[C@@H]21 , thanks.
11

Need EC50, item C=C1C(=O)O[C@H]2[C@H]1CC/C(C(=O)N1CCC(F)(F)CC1)=C\CC[C@@]1(C)O[C@@H]21
3.5

If you can, please state the reported EC50 value of C=C1C(=O)O[C@H]2[C@H]1CC/C(C(=O)Nc1n[nH]c(SC)n1)=C\CC[C@@]1(C)O[C@@H]21 .
0.016
